# TARGET OR SYSTEM: EPHB1 (UniProt P54762)
# Sequence (P54762 whole entry, looked up): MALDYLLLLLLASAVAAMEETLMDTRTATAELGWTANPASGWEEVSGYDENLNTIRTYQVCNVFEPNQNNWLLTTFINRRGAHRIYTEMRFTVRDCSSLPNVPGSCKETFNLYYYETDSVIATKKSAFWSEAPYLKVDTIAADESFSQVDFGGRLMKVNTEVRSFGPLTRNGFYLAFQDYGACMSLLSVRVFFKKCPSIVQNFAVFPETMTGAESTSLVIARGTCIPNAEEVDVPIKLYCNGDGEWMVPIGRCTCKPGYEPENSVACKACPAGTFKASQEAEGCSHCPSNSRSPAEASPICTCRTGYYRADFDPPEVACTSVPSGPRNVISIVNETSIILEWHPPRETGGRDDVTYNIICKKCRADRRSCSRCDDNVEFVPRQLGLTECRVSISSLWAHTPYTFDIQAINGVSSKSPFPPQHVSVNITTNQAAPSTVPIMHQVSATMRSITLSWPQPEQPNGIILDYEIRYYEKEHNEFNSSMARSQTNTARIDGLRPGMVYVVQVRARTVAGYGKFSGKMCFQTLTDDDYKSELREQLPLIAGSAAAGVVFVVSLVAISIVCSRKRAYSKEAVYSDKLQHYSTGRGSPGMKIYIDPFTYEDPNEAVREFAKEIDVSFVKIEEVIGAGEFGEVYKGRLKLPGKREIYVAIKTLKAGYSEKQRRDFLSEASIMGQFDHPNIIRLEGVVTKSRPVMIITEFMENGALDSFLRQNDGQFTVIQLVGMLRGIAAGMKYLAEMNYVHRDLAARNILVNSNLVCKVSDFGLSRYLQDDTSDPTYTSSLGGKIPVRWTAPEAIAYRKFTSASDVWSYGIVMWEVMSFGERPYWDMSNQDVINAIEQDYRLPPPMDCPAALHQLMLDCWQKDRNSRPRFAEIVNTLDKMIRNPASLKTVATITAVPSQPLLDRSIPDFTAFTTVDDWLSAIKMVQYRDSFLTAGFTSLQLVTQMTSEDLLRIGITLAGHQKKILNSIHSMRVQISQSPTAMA
# PROCEDURE DETAILS: phosphorylation enrichment, bacterial display (enrichment ratio); higher = better substrate or ligand; peptides without Tyr show the background;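 also: 11-residue human phosphosite peptides and single-mutation variants displayed on the E. coli surface, counted by deep sequencing, each peptide's frequency after selection divided by its frequency in the unselected input library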;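 also: frequency after pTyr selection over input frequency; kinase dosed for 20-30% of maximal phosphorylation in three min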
Entries annotated with measured phosphorylation enrichment
ENDPOINT NAME: phosphorylation enrichment

{"RESIDUES": "YRKNIYNVKST [SYNE2_Y575]", "MEASURED RESULT": 0.337}
{"RESIDUES": "TDKLFYIYTPG [SLC27A4_Y243_S247P]", "MEASURED RESULT": 0.683}
{"RESIDUES": "YSNVLYRPRGA [TMIGD2_Y197]", "MEASURED RESULT": 1.34}
{"RESIDUES": "SHMVNYQPFRK [TEX37_Y25_D24N_YF]", "MEASURED RESULT": 0.376}
{"RESIDUES": "KYVKMCDNHQL [MYO9A_Y203_Y203C]", "MEASURED RESULT": 0.442}
{"RESIDUES": "KQINDYVEKGT [SERPINA1_Y184]", "MEASURED RESULT": 0.491}
{"RESIDUES": "DFLSSYSAVNQ [OAT_Y85]", "MEASURED RESULT": 0.658}
{"RESIDUES": "ADCRYYAFPQM [GAMT_Y223]", "MEASURED RESULT": 9.71}
{"RESIDUES": "TKFRNYLIPKG [CYP2C8_Y379]", "MEASURED RESULT": 0.374}
{"RESIDUES": "LAIEWYVVVCK [RHO_Y136_R135W]", "MEASURED RESULT": 1.8}
{"RESIDUES": "REVPVYISEDS [SYNM_Y460_G462S]", "MEASURED RESULT": 1.3}
{"RESIDUES": "NGTVTYAIVAG [CDH23_Y1672]", "MEASURED RESULT": 3.07}
{"RESIDUES": "LAVVDYIRRQK [ATM_Y1915_M1916I]", "MEASURED RESULT": 0.918}
{"RESIDUES": "NPQKSYFICLY [WAS_Y83_R86C]", "MEASURED RESULT": 0.675}
{"RESIDUES": "APSGNYVACGG [GNB1_Y111]", "MEASURED RESULT": 0.822}
{"RESIDUES": "KSPDSYQKILP [ATM_Y1415_L1420P]", "MEASURED RESULT": 0.387}
{"RESIDUES": "LQTYRYHGLSM [PDHA1_Y289_H292L]", "MEASURED RESULT": 0.673}
{"RESIDUES": "AQINLYQDVML [ZNF806_Y33]", "MEASURED RESULT": 15}
{"RESIDUES": "AEPDIYQEKLS [USP54_Y1233]", "MEASURED RESULT": 0.531}
{"RESIDUES": "HESEIYCKVCF [CSRP3_Y57_YF]", "MEASURED RESULT": 0.854}
{"RESIDUES": "RLLRGYDQYAY [HLA-B_Y137_H137Y]", "MEASURED RESULT": 0.636}
{"RESIDUES": "RYVTRYIYNRE [HLA-DQB1_Y62]", "MEASURED RESULT": 0.74}
{"RESIDUES": "SILAVYSKDNF [PANK2_Y400_YF]", "MEASURED RESULT": 0.58}
{"RESIDUES": "YGCGMYSHLQG [LGR4_Y848_D844G]", "MEASURED RESULT": 1.06}
{"RESIDUES": "WNEVGYDDIGG [VCP_Y203_L198W]", "MEASURED RESULT": 0.608}
{"RESIDUES": "KPAFSYTSSST [SIM1_Y356]", "MEASURED RESULT": 0.467}
{"RESIDUES": "PSDSGYSYETI [MAP1B_Y1921]", "MEASURED RESULT": 0.596}
{"RESIDUES": "NFATLYLKIYH [PDE6B_Y219]", "MEASURED RESULT": 0.564}
{"RESIDUES": "GILDVYIFLGP [GAA_Y340]", "MEASURED RESULT": 0.787}
{"RESIDUES": "YDGKDYIALKE [HLA-A_Y147_N151K]", "MEASURED RESULT": 0.669}
